Tested on: wheat germ agglutinin (Triticum aestivum), Alexa647-labelled
protocol: wheat germ agglutinin binders on compound microarrays, profiling panel, artefact control for SMM control-protein annotation, biochemical, small-molecule microarray, 635/667 nm fluorescence (AID 1140);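 note: score merges 667 nm feature emission with signal to noise over triplicate slides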
test conditions: WGA-A647 binding, 635 nm fluorescence, higher = more signal
composite z-score below -0.1 gives -1; composite z-score at or above it gives 1.

## Task Given `COC(=O)[C@@H]1CC[C@H](C)[C@@H](c2ccc(Br)cc2)N1C(=O)C(F)(F)F` , state whether its composite z-score is at least -0.1.
## Result -1

## Task Given `COc1cccc([C@H](O)Cn2cc(-c3ccc(CON=C(C)C)cc3)nn2)c1` , state whether its composite z-score is at least -0.1.
## Result -1

## Task Given `COc1ccc(O[C@H]2C=C[C@@H](c3ccccc3)O[C@@H]2CON=C2c3cc(OC)ccc3O[C@H](c3cccc(OC)c3)[C@H]2O)cc1` , state whether its composite z-score is at least -0.1.
## Result 1

## Task Given `C[C@H]1CC[C@H]2C(=O)N[C@H](Cc3ccccc3)C(=O)N2[C@@H]1c1ccccc1` , state whether its composite z-score is at least -0.1.
## Result -1

## Task Given `C=CC[C@@H]1C=C[C@H](ON=C[C@@H](NS(=O)(=O)c2ccc(C)cc2)[C@H](C)C=CCC(=O)OC)[C@@H](CO)O1` , state whether its composite z-score is at least -0.1.
## Result 1

## Task Given `CO[C@@H]1C=CCC(=O)N[C@@H](C)C(=O)OC[C@@H](OC)[C@H](C)C=CCC(=O)OC[C@H]1C` , state whether its composite z-score is at least -0.1.
## Result -1
